Molecular target: UniProt:Q8NB16
Sequence (Q8NB16 1-471): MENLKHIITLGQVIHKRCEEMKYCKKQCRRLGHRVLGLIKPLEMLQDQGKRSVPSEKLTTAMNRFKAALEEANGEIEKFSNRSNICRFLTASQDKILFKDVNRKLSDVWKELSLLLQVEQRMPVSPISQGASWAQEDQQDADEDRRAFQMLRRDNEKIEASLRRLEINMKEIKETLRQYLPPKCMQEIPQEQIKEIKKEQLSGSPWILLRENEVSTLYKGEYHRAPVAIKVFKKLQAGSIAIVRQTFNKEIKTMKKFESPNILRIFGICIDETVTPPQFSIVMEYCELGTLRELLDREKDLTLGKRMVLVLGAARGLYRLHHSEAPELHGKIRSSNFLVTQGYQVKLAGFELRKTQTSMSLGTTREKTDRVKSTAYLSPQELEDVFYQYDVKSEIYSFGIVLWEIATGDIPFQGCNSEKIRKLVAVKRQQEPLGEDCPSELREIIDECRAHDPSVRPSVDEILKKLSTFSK
Assay: MLKL degradation assay in HepG2 cell line (western blot)
Format: cell-based
Design: endogenous in cells; host or cells: HepG2 or HaCaT
Details: compound 1 μM; cell line not given
Measured endpoint: Degradation assay (Degradation %) 1 μM

Some solved entries appear below for comparison.
INSERT INTO results (compound, measured_target, measurement) VALUES
  ('Nc1ncc(-c2cnn(C3CCN(CCC4CCN(C(=O)CCc5cccc6c5CN(C5CCC(=O)NC5=O)C6=O)CC4)CC3)c2)nc1C(=O)O[C@@H](C(=O)Nc1ccc(F)cc1)c1ccccc1 (stereo partly shown) [TDH-385]', 'UniProt:Q8NB16', 94.85),
  ('Cc1ncsc1-c1ccc(CNC(=O)[C@@H]2C[C@@H](O)CN2C(=O)[C@@H](NC(=O)CN2CCC(CN3CCC(n4cc(-c5cnc(N)c(C(=O)O[C@@H](C(=O)Nc6ccc(F)cc6)c6ccccc6)n5)cn4)CC3)CC2)C(C)(C)C)cc1 [TDH-211]', 'UniProt:Q8NB16', 9.7),
  ('Nc1ncc(-c2cnn([C@@H]3CCN(CC4CCN(C(=O)CNc5cccc6c5C(=O)N(C5CCC(=O)NC5=O)C6=O)CC4)C3)c2)nc1C(=O)OC(C(=O)Nc1ccc(F)cc1)c1ccccc1 (stereo partly shown) [TDH-285]', 'UniProt:Q8NB16', 56.55),
  ('Nc1ncc(-c2cnn(C3CCN(CC4CCN(c5cc6c(cc5F)C(=O)N(C5CCC(=O)NC5=O)C6=O)CC4)CC3)c2)nc1C(=O)O[C@@H](C(=O)Nc1ccc(F)cc1)c1ccccc1 (stereo partly shown) [TDH-519]', 'UniProt:Q8NB16', 89.40),
  ('Nc1ncc(-c2cnn(C3CCN(C(=O)CCC4CCN(C(=O)C5CCN(c6cccc7c6C(=O)N(C6CCC(=O)NC6=O)C7=O)CC5)CC4)CC3)c2)nc1C(=O)O[C@@H](C(=O)Nc1ccc(F)cc1)c1ccccc1 (stereo partly shown) [TDH-417]', 'UniProt:Q8NB16', 87.84);

[P] Nc1ncc(-c2cnn([C@H]3CCN(CC4CCN(C(=O)CNc5cccc6c5C(=O)N(C5CCC(=O)NC5=O)C6=O)CC4)C3)c2)nc1C(=O)OC(C(=O)Nc1ccc(F)cc1)c1ccccc1 (stereo partly shown) [TDH-281]
[Q] Nc1ncc(-c2cnn(C3CCN(CCCCCCNC(=O)C4CN(c5ccc6c(c5)C(=O)N(C5CCC(=O)NC5=O)C6=O)C4)CC3)c2)nc1C(=O)O[C@@H](C(=O)Nc1ccc(F)cc1)c1ccccc1 (stereo partly shown) [TDH-114]
Enquiry: Compare the recorded Degradation assay (Degradation %) 1 μM of P and Q ; state which is larger. Respond with the label that goes with your answer.
Return: P

[1] Nc1ncc(-c2cnn(C3CCN(CCOCCOCCOCCNc4cccc5c4C(=O)N(C4CCC(=O)NC4=O)C5=O)CC3)c2)nc1C(=O)O[C@@H](C(=O)Nc1ccc(F)cc1)c1ccccc1 (stereo partly shown) [TDH-153]
[2] Nc1ncc(-c2cnn(C3CCN(CCCCCCCCCCNC(=O)CNc4ccc5nnn(C6CCC(=O)NC6=O)c(=O)c5c4)CC3)c2)nc1C(=O)O[C@@H](C(=O)Nc1ccc(F)cc1)c1ccccc1 (stereo partly shown) [TDH-173]
[3] COc1ccc(C(=O)N2CCC3(CC2)CC(N2CCC(CCN4CCC(n5cc(-c6cnc(N)c(C(=O)O[C@@H](C(=O)Nc7ccc(F)cc7)c7ccccc7)n6)cn5)CC4)CC2)C3)cc1N1CCC(=O)NC1=O [TDH-504]
Enquiry: Would you mind ranking these compounds by ascending Degradation assay (Degradation %) 1 μM? Kindly provide the labels arranged according to the requested ordering.
Return: 1, 2, 3

[A] Nc1ncc(-c2cnn(C3CCN(CCOC4CCN(C(=O)c5cccc(C(=O)NC6CCC(=O)NC6=O)c5)CC4)CC3)c2)nc1C(=O)O[C@@H](C(=O)Nc1ccc(F)cc1)c1ccccc1 (stereo partly shown) [TDH-545]
[B] Nc1ncc(-c2cnn(C3CCN(CC4CCN(C(=O)C5CN(c6ccc7c(c6)C(=O)N(C6CCC(=O)NC6=O)C7=O)C5)CC4)CC3)c2)nc1C(=O)O[C@@H](C(=O)Nc1ccc(F)cc1)c1ccccc1 (stereo partly shown) [TDH-145]
Enquiry: Compare the recorded Degradation assay (Degradation %) 1 μM of A and B ; state which is larger. Respond with the label that goes with your answer.
Return: A
